# assayed_target: NHERF2_2, Q15599
# Sequence (Q15599 142-238): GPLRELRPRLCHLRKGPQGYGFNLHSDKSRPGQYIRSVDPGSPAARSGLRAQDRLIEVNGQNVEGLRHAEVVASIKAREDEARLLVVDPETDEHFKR
# procedure_summary: holdup assay
# Set-up: key: below the threshold = too weak to quantify, mostly under pKd 3.1 to 4
# assay_setup: plain residues with an end cap or a label only (N-terminal biotin on a linker: ado-ado)
parameter_measured: pKd

Take a look at these entries with their results.
[
  {
    "binder": "DTKNYKQTSV [CRIPT, Q9P021]",
    "pKd": 3.73
  },
  {
    "binder": "LAHVKHKEQI [AQP3, Q92482]",
    "pKd": "below the threshold"
  },
  {
    "binder": "TGLWKHETTV [ADGRA3, Q8IWK6]",
    "pKd": "below the threshold"
  },
  {
    "binder": "RDPPAEWTRV [PTPN18, Q99952]",
    "pKd": 4.45
  },
  {
    "binder": "QSYPSKHDYV [CLDN18, P56856]",
    "pKd": "below the threshold"
  }
]

Briefly, pKd measured for DDASLPVSDV [PLEKHA1, Q9HB21] : below the threshold

In plain terms, NNNVVKVDSV [MTNR1A, P48039] has a documented pKd of below the threshold

QRPYRRGSEI [KCNJ18, B7U540] yielded pKd of below the threshold
